# ASSAY_TEXT: Volume of distribution at steady state in CD-1 mouse at 2 mg/kg, iv
# Format: ADME, organism-based
# DETAILS: in vivo, read-out: Vdss
MEASURE: Vd (L/kg)
Answers are plain numbers, in L/kg.

## Task Name the reported Vd value associated with the compound `CC(C)S(=O)(=O)c1ccc(S(=O)(=O)N2CCC[C@@H](C(=O)N3CCC(F)(F)CC3)C2)cc1`
## Result 5.2

----------
# ASSAY_TEXT: Initial plasma concentration in CD-1 mouse at 2 mg/kg, iv
# Type: ADME, organism-based
MEASURE: C0
Phrase the answer as number then unit, nothing more needed.

## Task Name the reported C0 value associated with the compound `CC(C)S(=O)(=O)c1ccc(S(=O)(=O)N2CCC[C@@H](C(=O)N3CCC(F)(F)CC3)C2)cc1`
## Result 354 ng/mL

----------
# System: MIA PaCa-2
# ASSAY_TEXT: Cytotoxicity against human MIA PaCa-2 cells assessed as inhibition of cell growth incubated for overnight in glucose-containing medium followed by compound addition and measured after 7 days by MTT assay
# Format: functional, cell-based
# DETAILS: MIA PaCa-2, 168 h
Can you tell me log10(IC50) for the items I'm about to list?
In plain terms, each number is the log10 of measured IC50 in nM.

MOLECULE	log10(IC50)
CCN(CC)C(=O)c1ccc(S(=O)(=O)N2CCC[C@@H](C(=O)N3CCC(F)(F)CC3)C2)cc1	1.85
CCN(CC)S(=O)(=O)c1ccc(S(=O)(=O)N2CCC[C@@H](C(=O)N[C@H]3CCOC3)C2)cc1	3.22
CC(C)NS(=O)(=O)c1ccc(S(=O)(=O)N2CCC[C@@H](C(=O)N3CCC(F)(F)CC3)C2)cc1	2.54
CCN(CC)S(=O)(=O)c1ccc(S(=O)(=O)N2CCC[C@@H](C(=O)N3CCC(COC)CC3)C2)cc1	2.40
CCN(CC)S(=O)(=O)c1ccc(S(=O)(=O)N2CCC[C@@H](C(=O)NC3CCOCC3)C2)cc1	3.58

Moving on to another compound below.
## Task Name the reported log10(IC50) value associated with the compound `CCN(CC)S(=O)(=O)c1ccc(S(=O)(=O)N2CCC[C@@H](C(=O)N3CCC(C(F)F)CC3)C2)cc1`
## Result 2.62

----------
Can you tell me IC50 for the items I'm about to list?
# Tested on: MIA PaCa-2
# ASSAY_TEXT: Cytotoxicity against human MIA PaCa-2 cells assessed as inhibition of cell growth incubated for overnight in glucose-containing medium followed by compound addition and measured after 7 days by MTT assay
# Type: functional, cell-based
# DETAILS: MIA PaCa-2, 168 h
One number for each entry, in nM.

Solved cases (3 shown):
MOLECULE	MEASURE	RESULT_UNIT	OBSERVED
O=C([C@@H]1CCCN(S(=O)(=O)c2ccc(S(=O)(=O)C3CC3)cc2)C1)N1CCC(F)(F)CC1	IC50	nM	26
CCN(CC)S(=O)(=O)c1ccc(S(=O)(=O)N2CCC[C@@H](C(=O)N[C@@H]3CCOC3)C2)cc1	IC50	nM	750
FC(F)(F)c1ccc(/C=C/c2nc(COc3ccc(CCCCn4ccnn4)cc3)co2)cc1	IC50	nM	51

# map each compound to its IC50
1. CCN(CC)S(=O)(=O)c1ccc(S(=O)(=O)N2CCC[C@@H](C(=O)N3CCOCC3)C2)cc1
2. CC(C)CS(=O)(=O)c1ccc(S(=O)(=O)N2CCC[C@@H](C(=O)N3CCC(F)(F)CC3)C2)cc1
3. CCN(CC)S(=O)(=O)c1ccc(S(=O)(=O)N2CCC[C@@H](C(=O)N3CC[C@@H](OC)C3)C2)cc1
4. CCN(CC)S(=O)(=O)c1ccc(S(=O)(=O)N2CCC[C@@H](C(=O)N3CC[C@H](OC)C3)C2)cc1
5. O=C([C@@H]1CCCN(S(=O)(=O)c2ccc(S(=O)(=O)C3CCC3)cc2)C1)N1CCC(F)(F)CC1

## Result
1: 350; 2: 80; 3: 3910; 4: 2460; 5: 9

----------
# ASSAY_TEXT: Metabolic stability in mouse liver microsomes assessed as half life at 10 uM measured up to 60 mins in presence of NADPH by LC-MS/MS analysis
# Format: ADME, Microsome
# DETAILS: liver microsomes
Can you tell me half-life at 10 µM for the items I'm about to list?

Solved cases (3 shown):
MOLECULE	half-life at 10 µM
O=C([C@@H]1CCCN(S(=O)(=O)c2ccc(S(=O)(=O)C3CCC3)cc2)C1)N1CCC(F)(F)CC1	44 min
CC(C)S(=O)(=O)c1ccc(S(=O)(=O)N2CCC[C@@H](C(=O)N3CCC(F)(F)CC3)C2)cc1	> 60 min
CN(C)S(=O)(=O)c1ccc(S(=O)(=O)N2CCC[C@@H](C(=O)N3CCC(F)(F)CC3)C2)cc1	32 min

Moving on to another compound below.
## Task Name the reported half-life at 10 µM value associated with the compound `O=C([C@@H]1CCCN(S(=O)(=O)c2ccc(S(=O)(=O)N3CC[C@@H](O)C3)cc2)C1)N1CCC(F)(F)CC1`
## Result 26.2 min
